Assay: NCI Yeast Anticancer Drug Screen. Data for the rad50 strain (AID 155);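 further: 0% = growth of vehicle-only cultures of the same strain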
Details: S. cerevisiae rad50 strain growth inhibition; at 50.0 µM; stronger effect = higher value
Method: Growth inhibition of yeast strains with defined genetic alterations is measured as a screen for potential anti-cancer activity. Selected strains with alterations in DNA damage repair or cell cycle control were exposed to compounds and growth inhibition was measured relative to vehicle treated controls. The strain used in this assay is rad50
This is part of a sample that, as a whole, favours compounds with a hit. Of some 79,000 tested, about 15% had one in any assay.
Attribute: growth inhibition
Give the value in % but do not write % after it.

Take a look at these entries with their results.
# COMPOUND, growth inhibition (%)
measured = [
    ("CC(=O)Nc1c(C)cccc1F", 2.35),
    ("Cc1cc2nc(CC(=O)c3cccnc3)c(=O)[nH]c2cc1C", 0.9),
    ("CCC1(O)C(=O)c2ccccc2N(c2ccccc2)C1=O (stereo unspecified)", 9.05),
    ("NC(Cc1cccc(F)c1)C(=O)O (stereo unspecified)", -1.3),
    ("O=[N+]([O-])c1ccc(-c2csc(NCC3CCCO3)n2)cc1 (stereo unspecified)", 24.3),
    ("O=C1Nc2ccccc2C2=C3CCCCC3=NNC12 (stereo unspecified)", 97.7),
    ("c1cncc(CSc2ncnc3nc[nH]c23)c1", 11.8),
    ("CC1COC(C(=O)O)(c2ccccc2)O1 (stereo unspecified)", -1.05),
    ("CN=NNc1ccccc1", -1.4),
    ("CCOC(=O)/C=C(\\CC(=O)OCC)Nc1ccc(OC)cc1", 6.8),
]

Please report growth inhibition for the following compound: NC(=O)C(Cc1ccccc1Cl)c1ccccc1 (stereo unspecified)
-7.6

Please report growth inhibition for the following compound: CC(C)(C)c1ccc(-c2cc3nc(-c4ccccc4)cc(=O)n3[nH]2)cc1
-8.05

Please report growth inhibition for the following compound: CC(=O)/C(=C\c1ccccc1F)C(=O)CCN(C)C
7.95

Please report growth inhibition for the following compound: COC(=O)CC(c1ccc2c(c1)OCO2)N1CCCCC1 (stereo unspecified)
7.35

Please report growth inhibition for the following compound: CC(=O)c1cccc(NC(=O)Oc2ccc(F)cc2Cl)c1
-2.3

Please report growth inhibition for the following compound: CN(C)CCn1cnc2sc3ccccc3c21
-8.35

Please report growth inhibition for the following compound: Clc1ccc(/C=C2/c3ccccc3-c3nc4ccccc4cc32)cc1
-1.1

Please report growth inhibition for the following compound: Oc1ccc(C2=NNC(c3ccc(O)cc3)=NN2)cc1
12.7

Please report growth inhibition for the following compound: CN(C)c1ccc(S(=O)(=O)c2ccc3nc(N)nc(N)c3c2)cc1
29.2

Please report growth inhibition for the following compound: O=C(O)C1CC(Cl)C(O)C(Cl)C1 (stereo unspecified)
-6.9

Please report growth inhibition for the following compound: COC(=O)c1cc([N+](=O)[O-])c(Br)s1
99.3

Please report growth inhibition for the following compound: Cc1ccc(-c2cc(-c3ccco3)nc(N)n2)o1
-23.9

Please report growth inhibition for the following compound: COc1cc2c(cc1O)C1Cc3cc(O)c(OC)cc3C(C2)N1C (stereo unspecified)
-29.8

Please report growth inhibition for the following compound: NC(=O)NNC(=O)c1nc[nH]c1[N+](=O)[O-]
-24.2

Please report growth inhibition for the following compound: Cc1ccc2nc(Nc3ccc(Cl)cc3)cc(C(O)C3CCCCN3)c2c1 (stereo unspecified)
99.5

Please report growth inhibition for the following compound: O=C(O)C12CC3(C(=O)O)CC(C(=O)O)(CC(C(=O)O)(C1)C3=O)C2=O
-11.3

Please report growth inhibition for the following compound: C=CCN1COc2c(cc3c4c(cccc24)C(=O)O3)C1
-0.25

Please report growth inhibition for the following compound: O=C1c2ccc3ccccc3c2C(=O)c2ccc3ccccc3c21
-20.6

Please report growth inhibition for the following compound: CN(C)C1=NS(=O)(=O)N=C(N(C)c2ccccc2)O1
14.5

Please report growth inhibition for the following compound: CCC[C@H](C)[C@H]1NC(=O)[C@@H](NC(=O)[C@@H](CC(C)C)N(C)C(=O)C2CCCN2C(=O)[C@H](C)O)[C@@H](C)OC(=O)[C@H](CC(C)C)N(C)C(=O)[C@@H]2CCCN2C(=O)[C@H](CC(C)C)NC(=O)[C@@H](C)C(=O)[C@H](C(C)C)OC(=O)C[C@@H]1O (stereo partly specified)
21.2

Please report growth inhibition for the following compound: CC1=C(c2ccc(C)cc2)NC(=S)C(C)C(c2ccc(C)cc2)=N1 (stereo unspecified)
-11.2

###

Experiment: NCI Yeast Anticancer Drug Screen. Data for the sgs1 mgt1 strain (AID 161);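 further: 0% = growth of cultures given vehicle only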
Conditions: S. cerevisiae sgs1 mgt1 strain, at 50.0 µM, stronger effect = higher value
Compounds without any hit were thinned out: in the full panel of roughly 79,000, 15% have a hit.
Attribute: growth inhibition
Give the value in % but do not write % after it.

# COMPOUND, UNIT DESCRIPTOR, growth inhibition
rows = [
    ("CCN(CC)C(=O)c1ccc(O)c(OC)c1", "%", 7.3),
    ("CCOC(=O)C(NC(=O)OCc1ccccc1)C(=O)O (stereo not drawn)", "%", -14.3),
    ("N=C(N)Cn1cnc2ccccc21", "%", -9.65),
]

Please report growth inhibition for the following compound: COCc1ccccc1P(c1ccccc1COC)c1ccccc1COC
42

Please report growth inhibition for the following compound: O=C(Nc1cccc([N+](=O)[O-])c1)c1ccccc1Cl
1.85

Please report growth inhibition for the following compound: COc1ccc(/C=N/N2CCN(/N=C/c3ccc(OC)cc3)CC2)cc1
9.2

Please report growth inhibition for the following compound: COC(=N)c1nnn(-c2ccccc2)n1
-5.05

Please report growth inhibition for the following compound: c1ccc(P(CCNCCP(c2ccccc2)c2ccccc2)c2ccccc2)cc1
8.6

###

Experiment: NCI Yeast Anticancer Drug Screen. Data for the cln2 rad14 strain (AID 165);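 further: 0% = growth equal to vehicle treated cultures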
Settings: S. cerevisiae cln2 rad14 strain, at 50.0 µM
The panel holds about 79,000 compounds, 15% with a hit somewhere; the sample as a whole holds those more often. Calls of active or inactive are those of the source. No stated cut-off is given here; in the data, active means growth inhibition above about 70%; inactive means the rest.
Field 'call' accepts active, inactive

# MOLECULE, ASSIGNED LABEL
records = [
    ("Cc1ccc(/S(Cc2ccccc2)=N\\S(=O)(=O)c2ccc(C)cc2)cc1 (configuration not stated)", "inactive"),
    ("CCCCC(CC)/C(C)=N/NC(N)=O (configuration not stated)", "inactive"),
    ("NC1=NS(=O)(=O)Nc2nc(-c3ccc([N+](=O)[O-])o3)[nH]c21", "inactive"),
    ("CCNC(=S)Nc1ccc(Cl)cc1", "inactive"),
    ("OC1c2ccccc2CC1Br (configuration not stated)", "inactive"),
    ("CC(C)Cn1cnc2c(Cl)nc3ccccc3c21", "inactive"),
    ("COc1cccc2c1OCC1Cc3ccccc3OC21 (configuration not stated)", "active"),
    ("O=C(O)c1cccc(S(=O)(=O)NCCO)c1", "inactive"),
]

Name the outcome recorded for CCN(CC)C(=O)C1(C)NS(=O)(=O)c2ccccc2C1=O (configuration not stated) in the assay.
inactive

Name the outcome recorded for COc1cc([N+](=O)[O-])c(C=O)c(C(=O)O)c1OC in the assay.
inactive

Name the outcome recorded for O=C/C(Cl)=C\Nc1ccc(C(=O)O)cc1 in the assay.
inactive

Name the outcome recorded for CC(C)C1CCC(C)(C=O)C1 (configuration not stated) in the assay.
inactive

Name the outcome recorded for CC12NN=NC1C(=O)NC2=O (configuration not stated) in the assay.
inactive

Name the outcome recorded for CSc1nc2c(c(=O)n(C)c(=O)n2C)n1C in the assay.
inactive

Name the outcome recorded for CC1CCN(C(=O)Nc2ccccc2)CC1 in the assay.
inactive

Name the outcome recorded for O=C(NC(=S)Nc1ccc(S(=O)(=O)c2ccc(NC(=S)NC(=O)c3ccccc3)cc2)cc1)c1ccccc1 in the assay.
inactive

Name the outcome recorded for OCCN(c1ccccc1)c1nc(N(CCO)c2ccccc2)nc(N(CCO)c2ccccc2)n1 in the assay.
inactive

Name the outcome recorded for COc1ccc2c(c1)OCCN(C)OC2c1cccc(Cl)c1 (configuration not stated) in the assay.
inactive

Name the outcome recorded for C=CCOC(=O)c1cccc(C)c1 in the assay.
inactive

Name the outcome recorded for Nc1ccc(-c2ccc(N=C(/C=N/O)NO)cc2)cc1 in the assay.
inactive

Name the outcome recorded for CC(=O)C1CC2CCC1C2 (configuration not stated) in the assay.
inactive

Name the outcome recorded for S=c1[nH]ncn1/N=C/c1ccccc1Cl in the assay.
inactive

Name the outcome recorded for C[N+](C)(C)CC(=O)N/N=C(/Cc1cc(=O)oc2cc(O)ccc12)C(=O)Nc1ccc(Cl)cc1 in the assay.
inactive

Name the outcome recorded for CCOC(OCC)N(C)C in the assay.
inactive

Name the outcome recorded for COc1ccc2c(c1)OCC1=C2Oc2ccccc2C1 in the assay.
active

Name the outcome recorded for CCCCCC/C(C)=N/O in the assay.
inactive

Name the outcome recorded for CC(C)CCOC(=O)CC(CC(=O)OCCC(C)C)C(=O)OCCC(C)C in the assay.
inactive
